Attribution: paper PMC6602471

// reported binding signal for each item listed
- ASSAY_TARGET: ELK1 (Homo sapiens, UniProt P19419 1-428)
- Sequence: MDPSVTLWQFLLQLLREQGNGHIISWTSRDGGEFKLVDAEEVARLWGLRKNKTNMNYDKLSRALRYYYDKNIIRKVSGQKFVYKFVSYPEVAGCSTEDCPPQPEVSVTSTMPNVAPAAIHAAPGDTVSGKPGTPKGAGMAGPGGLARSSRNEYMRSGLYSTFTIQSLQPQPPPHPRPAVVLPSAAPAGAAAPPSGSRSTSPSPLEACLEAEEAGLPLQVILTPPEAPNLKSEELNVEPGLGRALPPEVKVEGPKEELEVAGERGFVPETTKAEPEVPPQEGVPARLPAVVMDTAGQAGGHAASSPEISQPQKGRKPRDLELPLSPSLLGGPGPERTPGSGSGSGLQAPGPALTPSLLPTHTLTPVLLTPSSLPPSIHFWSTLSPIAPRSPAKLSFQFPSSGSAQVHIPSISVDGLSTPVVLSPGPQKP
- MEASUREMENT_DESCRIPTION: custom PBM; custom protein-binding microarray; buffer, salt, pH and temperature not stated; high values mean tight binding
- EXPERIMENTAL_PARAMETERS: dsDNA, one strand shown
Over roughly 1,300 sequences, “log fluorescence intensity” has its median near 8.9; the highest 2% begin near 13. This excerpt belongs to a sample that is enriched for the highest values.

PRIMARY_SEQUENCE: TGTCGGGTAAGGGAATGTAGATCACGTGAATGAATAGTCTTGATTCGCTTGACGCTGCTG
binding signal: 8.98 log fluorescence intensity
--
PRIMARY_SEQUENCE: CACAATTTTTACAGTAATGTAGCACGCGTTACTCCTGTCTTGATTCGCTTGACGCTGCTG
binding signal: 9.11 log fluorescence intensity
--
PRIMARY_SEQUENCE: TGTCGGGCAAGGGAATGTAGATCACGTGAATGAAAAGTCTTGATTCGCTTGACGCTGCTG
binding signal: 9.09 log fluorescence intensity
--
PRIMARY_SEQUENCE: CGGAAGTGTCGTAAACGTCGGATATCCGGTTCTACTGTCTTGATTCGCTTGACGCTGCTG
binding signal: 12.4 log fluorescence intensity
--
PRIMARY_SEQUENCE: GTGTATAGGATCCCATCCAACACACGTGTTACAATGGTCTTGATTCGCTTGACGCTGCTG
binding signal: 9.02 log fluorescence intensity
--
PRIMARY_SEQUENCE: TCCGGCTACCAGCTCCACCCACTTCAGGCCTTGTCGGTCTTGATTCGCTTGACGCTGCTG
binding signal: 9.01 log fluorescence intensity
--
PRIMARY_SEQUENCE: CACAATTTTTACAGTAATTTAGCACGCGTAACTCCTGTCTTGATTCGCTTGACGCTGCTG
binding signal: 8.93 log fluorescence intensity
--
PRIMARY_SEQUENCE: TAGAGGGAAGACGGTTGTGGTAGTTCCGGGTATTAAGTCTTGATTCGCTTGACGCTGCTG
binding signal: 11.2 log fluorescence intensity
--
PRIMARY_SEQUENCE: GGAAAAAGGCCCAGGGTAACACCGGAATTGGGCTTAGTCTTGATTCGCTTGACGCTGCTG
binding signal: 9.46 log fluorescence intensity
--
PRIMARY_SEQUENCE: CGGAAGTGTCGTAAACGTCGGATATCCGGTTCTGCTGTCTTGATTCGCTTGACGCTGCTG
binding signal: 12.5 log fluorescence intensity
--
PRIMARY_SEQUENCE: CAGTATAGGACTTCTTCCCTGAAGCAATTGATAACCGTCTTGATTCGCTTGACGCTGCTG
binding signal: 8.93 log fluorescence intensity
--
PRIMARY_SEQUENCE: GGAAAAAGGCCCAGGGTAACACCGGAAGTGGCCTTAGTCTTGATTCGCTTGACGCTGCTG
binding signal: 10.9 log fluorescence intensity
--
PRIMARY_SEQUENCE: CAGCATAGGACTCCTTCCCTGAAGCAATTGATAACCGTCTTGATTCGCTTGACGCTGCTG
binding signal: 8.92 log fluorescence intensity
--
PRIMARY_SEQUENCE: CAGCATAGGACTTCTTCCCTGAAGAAATTGATAACCGTCTTGATTCGCTTGACGCTGCTG
binding signal: 8.96 log fluorescence intensity
--
PRIMARY_SEQUENCE: CGGAAGTGTCGTAAACGTCGGATATGCGGTTCTTCTGTCTTGATTCGCTTGACGCTGCTG
binding signal: 9.16 log fluorescence intensity
--
PRIMARY_SEQUENCE: CTGGGACTTGACCCAACTCTGCCACGTGGGTCGTATGTCTTGATTCGCTTGACGCTGCTG
binding signal: 8.98 log fluorescence intensity
--
PRIMARY_SEQUENCE: TAAAGGGAAGACGGTTGTGGTAGTTCCGGGGATTAAGTCTTGATTCGCTTGACGCTGCTG
binding signal: 10.9 log fluorescence intensity
--
PRIMARY_SEQUENCE: GTAAAAAGGCCCAGGGTAACACCGGAAGTGGGCTTAGTCTTGATTCGCTTGACGCTGCTG
binding signal: 10.9 log fluorescence intensity
